test: Pharmacokinetics of ceftolozane/tazobactam in healthy adults, single and multiple IV doses; conditions: human, plasma, intravenous, 1.5 g, Cmax, mean (CV %), 1.5 g q8h 1-hour infusion, healthy adults; Day 1
MEASURE NAME: Cmax (ng/mL)
Give the number; ng/mL is assumed, so skip it.

Need Cmax of C[C@]1(Cn2ccnn2)[C@H](C(=O)O)N2C(=O)C[C@H]2S1(=O)=O [Tazobactam, tazobactam] , thanks.
18400
